- target-or-system: Histone deacetylase 1 (Homo sapiens, UniProt Q13547)
- Sequence (Q13547 whole entry): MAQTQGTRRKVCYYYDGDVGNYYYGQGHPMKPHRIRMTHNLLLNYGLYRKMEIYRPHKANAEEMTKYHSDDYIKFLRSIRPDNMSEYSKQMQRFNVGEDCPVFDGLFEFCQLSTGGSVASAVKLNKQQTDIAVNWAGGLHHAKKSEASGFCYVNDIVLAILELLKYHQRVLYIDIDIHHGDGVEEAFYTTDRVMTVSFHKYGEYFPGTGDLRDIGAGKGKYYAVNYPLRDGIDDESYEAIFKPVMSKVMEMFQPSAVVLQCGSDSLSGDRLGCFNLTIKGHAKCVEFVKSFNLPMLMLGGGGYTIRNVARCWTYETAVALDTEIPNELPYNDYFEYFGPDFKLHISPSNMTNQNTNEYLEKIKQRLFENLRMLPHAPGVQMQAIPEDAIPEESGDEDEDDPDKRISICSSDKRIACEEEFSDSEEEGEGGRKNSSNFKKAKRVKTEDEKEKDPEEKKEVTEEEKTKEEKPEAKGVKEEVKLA
- procedure-text: Inhibition of human recombinant HDAC1 using Fluor de Lys as substrate after 2 hrs by fluorescence method
pKi: −log10 of the molar value.
measure-name: pKi

Consider the reported pKi for these compounds:
compound	measure-name	value-observed
CC(C)C(CCCCC(=O)NO)Nc1c(Nc2ccc(C(F)(F)F)cc2)c(=O)c1=O (racemic)	pKi	7.92
C[C@H](CCCCC(=O)NO)Nc1c(Nc2ccc3cc(C(F)(F)F)[nH]c3c2)c(=O)c1=O	pKi	9.82

(a) COc1ccc(Nc2c(NC(C)CCCCC(=O)NO)c(=O)c2=O)cc1 (racemic)
(b) C[C@H](CCCCC(=O)NO)Nc1c(Nc2ccc(N(C)C)cc2)c(=O)c1=O
Query string: Consider a and b . Which of these has its pKi at a higher number? Respond using the label that marks the chosen record.
Result string: a
(a: 9.57, b: 8.57)

(A) Cc1ccccc1[C@H](C)Nc1c(NCCCCCC(=O)NO)c(=O)c1=O
(B) Cc1ccccc1Nc1c(NCCCCCC(=O)NO)c(=O)c1=O
Query string: Identify the entry with the larger pKi. Options: A and B Mark your answer with the label of the selected entry.
Result string: A

(A) O=C(CCCCC(Cc1ccccc1)Nc1c(Nc2ccc(C(F)(F)F)cc2)c(=O)c1=O)NO (racemic)
(B) C[C@H](CCCCC(=O)NO)Nc1c(Nc2ccc(OC(F)(F)F)cc2)c(=O)c1=O
Query string: For A and B , which recorded pKi is lower? Answer = label.
Result string: A
(A: 8.72, B: 9.24)

---

- procedure-text: Solubility in PG/EtOH (96%) at 30 mg/mL after 24 hrs by UV-spectrometric method
- Assay type: physicochemical
- recorded-conditions: PG/EtOH (96%)
measure-name: solubility at 24 h (mM)

Below: 8 molecules and their reported solubility at 24 h.
molecule	solubility at 24 h (mM)
O=C(CCCCC(Cc1ccccc1)Nc1c(Nc2ccc(C(F)(F)F)cc2)c(=O)c1=O)NO (racemic)	5.7
Cc1cccc(Nc2c(NCCCCCC(=O)NO)c(=O)c2=O)c1	11
Cc1ccc(Nc2c(NCCCCCC(=O)NO)c(=O)c2=O)cc1	1.8
C[C@@H](CCCCC(=O)NO)Nc1c(Nc2ccc(N(C)C)cc2)c(=O)c1=O	28
CCC(CCCCC(=O)NO)Nc1c(Nc2ccc(C(F)(F)F)cc2)c(=O)c1=O (racemic)	25
CN(C)c1ccc(Nc2c(NCCCCCC(=O)NO)c(=O)c2=O)cc1	1.4
C[C@H](Nc1c(NCCCCCC(=O)NO)c(=O)c1=O)c1ccccc1	28
COc1cc(Nc2c(NCCCCCC(=O)NO)c(=O)c2=O)ccc1N(C)C	2.6

(a) COc1ccc(Nc2c(NC(C)CCCCC(=O)NO)c(=O)c2=O)cc1 (racemic)
(b) C[C@H](CCCCC(=O)NO)Nc1c(Nc2ccc(N(C)C)cc2)c(=O)c1=O
(c) CC(Nc1c(NCCCCCC(=O)NO)c(=O)c1=O)C12CC3CC(CC(C3)C1)C2 (centres undefined)
(d) CC[C@H](Nc1c(NCCCCCC(=O)NO)c(=O)c1=O)c1ccccc1
Query string: Let's sort these by solubility at 24 h, smallest first. Go ahead? Write the labels, ordered according to the request.
Result string: a, b, c, d
(a: 11 mM, b: 27 mM, c: 39 mM, d: 57 mM)

(A) CC(CCCCC(=O)NO)Nc1c(Nc2ccccc2)c(=O)c1=O (racemic)
(B) Cc1ccc([C@H](C)Nc2c(NCCCCCC(=O)NO)c(=O)c2=O)cc1
Query string: Input pair: A , B . Output: entry with lower solubility at 24 h. Choose, then provide that item's label.
Result string: B
(B: 5.6 mM, A: 46 mM)
